- Test target: wild type PKR (Homo sapiens)
- Measurement description: PKR (wild type) enzyme AC50 assay, LDH/NADH-coupled, absorbance at 340 nm
- Type: biochemical
- Experimental conditions: Table 2; enzyme assay; read-out: PKR WT AC50
Assay endpoint: AC50

For CCc1nc2c(s1)c1cnn(Cc3cccc(OC)c3)c(=O)c1n2C [Compound 39] , what is its reported AC50? < 300 nM

---

- Test target: wild type PKR (Homo sapiens, UniProt P30613)
- Sequence (P30613 whole entry): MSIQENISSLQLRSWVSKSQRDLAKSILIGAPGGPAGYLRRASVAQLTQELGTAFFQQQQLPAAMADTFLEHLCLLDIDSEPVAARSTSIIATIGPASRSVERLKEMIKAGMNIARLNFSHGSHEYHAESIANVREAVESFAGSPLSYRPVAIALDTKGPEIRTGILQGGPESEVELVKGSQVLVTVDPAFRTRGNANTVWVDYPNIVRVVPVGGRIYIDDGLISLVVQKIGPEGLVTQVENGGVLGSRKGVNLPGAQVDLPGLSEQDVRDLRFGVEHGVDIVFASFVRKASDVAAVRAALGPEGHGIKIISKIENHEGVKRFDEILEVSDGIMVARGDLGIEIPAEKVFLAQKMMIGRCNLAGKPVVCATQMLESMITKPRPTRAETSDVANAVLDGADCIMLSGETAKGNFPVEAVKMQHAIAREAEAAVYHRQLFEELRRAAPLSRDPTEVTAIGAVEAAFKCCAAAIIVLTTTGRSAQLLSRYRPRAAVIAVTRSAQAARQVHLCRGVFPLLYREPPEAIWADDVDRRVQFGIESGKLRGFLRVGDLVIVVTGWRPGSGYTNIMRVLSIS
- Measurement description: Cell based ATP assay in purified red blood cells (Cell-Titer-Glo)
- Set-up: endogenous in cells; host or cells: purified red blood cells from healthy volunteers
- Experimental conditions: Table 2; RBCs, overnight at 37° C., ATP levels
- Procedure: Example 16. Red Blood Cell (RBC) Purification Fresh blood drawn from healthy volunteers into K2EDTA tubes was collected. Whole blood was pelleted by spinning at 500 g for 10 minutes. Cut transfusion bag port off of Purecell leukocyte reduction neofilter (Fisher NC0267633) one (1) inch above filter. […] For cell based ATP assays, the compound as described herein was prepared in 100% DMSO as a 10 mM stock. […] ATP levels were read out using Cell-Titer-Glo (Promega).
Assay endpoint: AC50

>  <Compound>
Cn1c2nc(Cc3ccc(C#N)cc3)sc2c2cnn(Cc3cccc4[nH]ncc34)c(=O)c21

>  <AC50>
> 1 µM

$$$$

Field request: AC50 | item: C=Cc1nc2c(s1)c1cnn(Cc3cccc(OC)c3)c(=O)c1n2C > 1 µM

Entry COc1ccc(Cn2ncc3c4sc(C)nc4n(C)c3c2=O)cc1 please ≤ 1 µM

Do the same for COc1cccc(Cn2ncc3c4sc(C(F)(F)F)nc4n(C)c3c2=O)c1 please > 1 µM

Now the same for Cn1c2nc(S(N)(=O)=O)sc2c2cnn(Cc3cccc4[nH]ncc34)c(=O)c21 ≤ 1 µM

Queued: Cc1nc2c(s1)c1cnn(Cc3ccc(F)cc3)c(=O)c1n2C ≤ 1 µM

Cn1c2nc(Cc3ccon3)sc2c2cnn(Cc3cccc4[nH]ncc34)c(=O)c21 ? > 1 µM

Next up: Cn1c2nc([S+](C)[O-])sc2c2cnn(Cc3csc(N)n3)c(=O)c21 (centres unmarked) ≤ 1 µM

Moving on to the next compound: CCc1nc2c(s1)c1cnn(Cc3cccc(OC)c3)c(=O)c1n2C > 1 µM

Next compound up: Cn1c2nc(C(O)c3cc[nH]n3)sc2c2cnn(Cc3cccc4[nH]ncc34)c(=O)c21 (centres unmarked) ≤ 1 µM

Next up: COc1cccc(Cn2ncc3c4sc(SC)nc4n(C)c3c2=O)c1 > 1 µM

---

- Test target: PKR R510Q (Homo sapiens, UniProt P30613, R510Q)
- Sequence (P30613 whole entry R510Q): as the sequence (P30613 whole entry) above, with R510Q counted along it
- Measurement description: PKR mutant assay (R510Q), AC50, LDH/NADH-coupled, absorbance at 340 nm
- Experimental conditions: Table 4; AC50, enzyme assay; read-out: PK R510Q
Assay endpoint: EC50

Sample records with EC50:
>  <Molecule>
Cn1c2nc(Cc3cc[nH]n3)sc2c2cnn(Cc3cccc4c3CNC4)c(=O)c21 [Compound 253]

>  <Endpoint value>
< 0.3 µM

$$$$
>  <Molecule>
Cn1c2nc(Cc3cc[nH]n3)sc2c2cnn(Cc3ccc4oc(=O)[nH]c4n3)c(=O)c21 [Compound 386]

>  <Endpoint value>
< 0.3 µM

$$$$
>  <Molecule>
Cn1c2nc(Cc3cc[nH]n3)sc2c2cnn(Cc3n[nH]c4ccccc34)c(=O)c21 [Compound 372]

>  <Endpoint value>
< 0.3 µM

$$$$
>  <Molecule>
Cn1c2nc(Cc3cc[nH]n3)sc2c2cnn(CCc3cccc(N)n3)c(=O)c21 [Compound 385]

>  <Endpoint value>
< 0.3 µM

$$$$
>  <Molecule>
Cn1ccc(Cn2ncc3c4sc(Cc5cccc6cn[nH]c56)nc4n(C)c3c2=O)n1 [Compound 258]

>  <Endpoint value>
< 0.3 µM

$$$$
>  <Molecule>
Cn1c2nc(Cc3c[nH]cn3)sc2c2cnn(Cc3cccc4[nH]ncc34)c(=O)c21 [Compound 205]

>  <Endpoint value>
< 0.3 µM

$$$$
>  <Molecule>
Cn1ccc(CCn2ncc3c4sc(Cc5cccnc5)nc4n(C)c3c2=O)n1 [Compound 400]

>  <Endpoint value>
> 0.8 µM

$$$$

Need EC50 of Cn1c2nc(Cc3cc[nH]n3)sc2c2cnn(CCc3cccnc3)c(=O)c21 [Compound 399] , thanks. > 0.8 µM

---

- Test target: PKR K410E (Homo sapiens, UniProt P30613, K410E)
- Sequence (P30613 whole entry K410E): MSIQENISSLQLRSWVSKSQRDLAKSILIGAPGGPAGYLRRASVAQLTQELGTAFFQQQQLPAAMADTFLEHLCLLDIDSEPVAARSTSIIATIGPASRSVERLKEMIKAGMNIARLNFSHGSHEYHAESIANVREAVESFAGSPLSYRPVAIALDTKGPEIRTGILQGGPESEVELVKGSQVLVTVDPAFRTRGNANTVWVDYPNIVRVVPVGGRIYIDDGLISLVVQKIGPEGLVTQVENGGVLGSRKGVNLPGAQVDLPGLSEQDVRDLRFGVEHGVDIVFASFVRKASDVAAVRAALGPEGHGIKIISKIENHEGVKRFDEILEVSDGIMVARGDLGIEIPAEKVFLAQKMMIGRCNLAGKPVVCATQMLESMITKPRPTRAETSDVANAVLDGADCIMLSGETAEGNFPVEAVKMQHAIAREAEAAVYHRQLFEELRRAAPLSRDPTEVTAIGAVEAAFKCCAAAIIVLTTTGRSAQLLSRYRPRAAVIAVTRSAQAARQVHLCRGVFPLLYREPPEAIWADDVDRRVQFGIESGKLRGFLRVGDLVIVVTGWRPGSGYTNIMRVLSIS
- Measurement description: PKR mutant assay (K410E), AC50, LDH/NADH-coupled, absorbance at 340 nm
- Assay type: biochemical
- Experimental conditions: Table 2; enzyme assay
AC50 values by entry

# example entries with known answers
>  <Molecule>
COc1cccc(Cn2ncc3c4sc(C(F)(F)c5ccccc5)nc4n(C)c3c2=O)c1 [Compound 108]

>  <AC50>
< 300 nM

$$$$
>  <Molecule>
Cc1nc2c(s1)c1cnn(Cc3cccc(N)n3)c(=O)c1n2C [Compound 74]

>  <AC50>
< 300 nM

$$$$

Form field - read-out: AC50; system: PKR K410E (Homo sapiens, UniProt P30613, K410E); submitted item: Cn1c2nc(Cc3cccc(O)c3)sc2c2cnn(Cc3cccc4[nH]ncc34)c(=O)c21 [Compound 89] < 300 nM

Now this one: Cn1c2nc([S+](C)[O-])sc2c2cnn(Cc3ccnc(N)c3)c(=O)c21 (stereo not shown) [Compound 78] > 800 nM

And Cc1nc2c(s1)c1cnn(Cc3ccc(F)cc3)c(=O)c1n2C [Compound 9] ? < 300 nM

---

- Test target: wild type PKR (Homo sapiens, UniProt P30613)
- Measurement description: PKR (wild type) enzyme AC50 assay, LDH/NADH-coupled, absorbance at 340 nm
- Assay type: biochemical
- Experimental conditions: Table 4; AC50, enzyme assay; read-out: PKR WT
pEC50: −log10 of the molar value.
Assay endpoint: pEC50

These recorded examples may help you get a feel for the data.
>  <Smiles input>
Cn1c2nc(Cc3cnn[nH]3)sc2c2cnn(Cc3cccc4[nH]ncc34)c(=O)c21

>  <Endpoint value>
> 6.52

$$$$
>  <Smiles input>
Cc1nc2c(s1)c1cnn(Cc3cccc(C(N)=O)c3)c(=O)c1n2C

>  <Endpoint value>
< 6.10

$$$$
>  <Smiles input>
Cn1c2nc(Cc3cc(F)[nH]n3)sc2c2cnn(Cc3cccc4[nH]ncc34)c(=O)c21

>  <Endpoint value>
> 6.52

$$$$
>  <Smiles input>
O=c1c2c(cnn1Cc1ccccc1)c1sc(Cc3ccccn3)nc1n2-c1nccs1

>  <Endpoint value>
< 6.10

$$$$

Report pEC50 for COc1cc(Cc2nc3c(s2)c2cnn(Cc4cccc5[nH]ncc45)c(=O)c2n3C)ccn1 tested on wild type PKR (Homo sapiens, UniProt P30613). > 6.52

Lookup Cn1ncc2c(Cn3ncc4c5sc(Cc6cc[nH]n6)nc5n(C)c4c3=O)cccc21 > 6.52

Same for Cn1ccc(Cn2ncc3c4sc(CCc5cc[nH]n5)nc4n(C)c3c2=O)n1 > 6.52

Next molecule: COc1ncc(Cc2nc3c(s2)c2cnn(Cc4cccc5[nH]ncc45)c(=O)c2n3C)cn1 6.10 to 6.52

Repeat with Cn1c2nc(Cc3cc[nH]n3)sc2c2cnn(Cc3ccc4c(c3)OCO4)c(=O)c21 > 6.52

Queued: Cn1c2nc(Oc3ccn[nH]3)sc2c2cnn(Cc3cccc(N)n3)c(=O)c21 > 6.52

Repeat for the following molecule: O=c1c2c(cnn1Cc1ccccc1)c1sc(Cc3cc[nH]n3)nc1n2C1CC1 < 6.10

Do the same for Cn1c2nc(Cc3cc[nH]n3)sc2c2cnn(Cc3ccc4nc[nH]c4n3)c(=O)c21 please > 6.52

Can you check Cn1c2nc(Cc3nccs3)sc2c2cnn(Cc3cccc4[nH]ncc34)c(=O)c21 next? > 6.52

Then this molecule: Cn1c2nc(Cc3cc[nH]n3)sc2c2cnn(Cc3ccc4cc(F)[nH]c4n3)c(=O)c21 > 6.52

How about this molecule: Cn1c2nc(Cn3cncn3)sc2c2cnn(Cc3cccc4[nH]ncc34)c(=O)c21 > 6.52

Then what about the molecule Cn1c2nc(CCc3cc[nH]n3)sc2c2cnn(Cc3cccc(N)n3)c(=O)c21 ? > 6.52

Another: O=c1c2c(cnn1Cc1ccccc1)c1sc(Cc3ccccn3)nc1n2-c1ccccc1 < 6.10

And then Cn1c2nc(Cc3cc[nH]n3)sc2c2cnn(Cc3cccc4[nH]ccc34)c(=O)c21 , what is it? > 6.52

Entry Cn1c2nc(Cc3cnc(N)s3)sc2c2cnn(Cc3cccc4[nH]ncc34)c(=O)c21 please 6.10 to 6.52

Same lookup for Cn1c2nc(Cc3cc[nH]n3)sc2c2cnn(Cc3ccc4ccccc4c3)c(=O)c21 , please. > 6.52

What do you get for CC(=O)c1cccc(Cn2ncc3c4sc(Cc5cc[nH]n5)nc4n(C)c3c2=O)c1 ? > 6.52

Now the molecule Cn1c2nc(Cc3c[nH]cn3)sc2c2cnn(Cc3cccc4[nH]ncc34)c(=O)c21 > 6.52

What do you have for Cn1c2nc(Cc3cc[nH]n3)sc2c2cnn(Cc3cccc(O)c3)c(=O)c21 ? > 6.52

Query Cn1c2nc(Cc3cc[nH]n3)sc2c2cnn(Cc3cccc4[nH]c(=O)[nH]c34)c(=O)c21 next > 6.52

What about this molecule? Cn1c2nc(Cc3cc[nH]n3)sc2c2cnn(Cc3n[nH]c4ccccc34)c(=O)c21 > 6.52

Try this molecule next: Cn1c2nc(Cc3cc[nH]n3)sc2c2cnn(CC3CCCCC3)c(=O)c21 < 6.10

What do you have for Cn1c2nc(Cn3ccnc3)sc2c2cnn(Cc3cccc(C(N)=O)c3)c(=O)c21 ? < 6.10

Now give it for Cn1c2nc(Cc3cc[nH]n3)sc2c2cnn(Cc3cccc4[nH][nH]c(=O)c34)c(=O)c21 too. > 6.52
